Provide the reported Ke norBNI of each item.
# TARGET_OF_ASSAY: κ receptor (Mus musculus, UniProt P33534)
# Construct: The isolated vas deference was filled with Krebes-Henseleit solution; from tissue; host or cells: isolated vas deferens of male ddy mouse
# Sequence (P33534 whole entry): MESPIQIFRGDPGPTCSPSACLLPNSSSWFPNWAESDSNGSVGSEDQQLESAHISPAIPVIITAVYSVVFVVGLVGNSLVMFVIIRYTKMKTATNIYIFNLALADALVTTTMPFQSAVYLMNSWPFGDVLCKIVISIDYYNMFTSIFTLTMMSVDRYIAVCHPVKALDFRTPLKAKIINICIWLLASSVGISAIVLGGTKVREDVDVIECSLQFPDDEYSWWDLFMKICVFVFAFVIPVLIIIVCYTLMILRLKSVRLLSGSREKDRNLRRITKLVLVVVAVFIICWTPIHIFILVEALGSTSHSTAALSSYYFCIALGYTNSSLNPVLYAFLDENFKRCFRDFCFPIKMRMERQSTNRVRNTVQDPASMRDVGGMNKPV
# METHOD: Ke with norBNI in isolated mouse vas deference preparation
# Format: cell-based, mouse (male ddy)
# MEASUREMENT_CONDITIONS: norBNI (κ)
Give the value; after it, write the unit.

Previously resolved entries follow.
In [3]: df
Out[3]:
                               input_smiles                           target_of_assay  endpoint_value
0  CN(C(=O)/C=C/c1ccccc1)[C@H]1CC[C@@]2(O)[C@H]3Cc4ccc(O)c5c4[C@@]2(CCN3CC2CC2)[C@H]1O5  κ receptor (Mus musculus, UniProt P33534)         4.90 nM
1  CN(C(=O)CCc1ccccc1)[C@@H]1CC[C@@]2(O)[C@H]3Cc4ccc(O)c5c4[C@@]2(CCN3CC2CC2)[C@H]1O5  κ receptor (Mus musculus, UniProt P33534)       0.0124 nM

Dear colleague, could you please provide Ke norBNI for the compounds listed below?
1. CN(C(=O)COc1ccccc1)[C@H]1CC[C@@]2(O)[C@H]3Cc4ccc(O)c5c4[C@@]2(CCN3CC2CC2)[C@H]1O5
2. CN(C(=O)CCc1ccccc1)[C@H]1CC[C@@]2(O)[C@H]3Cc4ccc(O)c5c4[C@@]2(CCN3CC2CC2)[C@H]1O5
3. CN(C(=O)/C=C/c1cccc([N+](=O)[O-])c1)[C@H]1CC[C@@]2(O)[C@H]3Cc4ccc(O)c5c4[C@@]2(CCN3CC2CC2)[C@H]1O5
4. CN(C(=O)/C=C/c1ccc(C(F)(F)F)cc1)[C@@H]1CC[C@@]2(O)[C@H]3Cc4ccc(O)c5c4[C@@]2(CCN3CC2CC2)[C@H]1O5

4.65 nM
5.53 nM
13.9 nM
0.272 nM

* * *

Kindly state Ke NTI for each of the entries shown.
# TARGET_OF_ASSAY: δ receptor (Mus musculus)
# Construct: The isolated vas deference was filled with Krebes-Henseleit solution; from tissue; host or cells: isolated vas deferens of male ddy mouse
# Sequence (P32300 whole entry): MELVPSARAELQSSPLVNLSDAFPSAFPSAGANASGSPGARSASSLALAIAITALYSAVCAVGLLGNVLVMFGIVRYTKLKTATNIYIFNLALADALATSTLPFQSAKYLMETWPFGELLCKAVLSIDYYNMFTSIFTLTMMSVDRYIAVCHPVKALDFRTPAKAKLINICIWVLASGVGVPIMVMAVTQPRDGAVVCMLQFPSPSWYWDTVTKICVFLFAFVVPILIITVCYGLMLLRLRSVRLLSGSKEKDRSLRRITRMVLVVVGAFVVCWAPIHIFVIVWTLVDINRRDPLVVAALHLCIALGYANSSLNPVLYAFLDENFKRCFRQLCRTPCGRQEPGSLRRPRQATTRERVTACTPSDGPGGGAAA
# METHOD: Ke with NTI in isolated mouse vas deference preparation
# Assay type: cell-based, mouse (male ddy)
# MEASUREMENT_CONDITIONS: NTI (δ)
Give bare numbers, in nM.

Sample records with Ke NTI:
>>> df
                                   compound  measurement_type  endpoint_value
0  CN(C(=O)OCc1ccc([N+](=O)[O-])cc1)[C@H]1CC[C@@]2(O)[C@H]3Cc4ccc(O)c5c4[C@@]2(CCN3CC2CC2)[C@H]1O5 [Compound 43]            Ke NTI            22.5
1  C=CCN1CC[C@]23c4c5ccc(O)c4O[C@H]2[C@@H](N(C)C(=O)Cc2ccc(Cl)c(Cl)c2)CC[C@@]3(O)[C@H]1C5 [Compound 122]            Ke NTI            42.7
2  Cc1cccc(/C=C/C(=O)N(C)[C@@H]2CC[C@@]3(O)[C@H]4Cc5ccc(O)c6c5[C@@]3(CCN4CC3CC3)[C@H]2O6)c1 [Compound 69]            Ke NTI            64.5

I need Ke NTI for every entry listed below, if you could help.
1. CN(C(=O)/C=C/c1cccc([N+](=O)[O-])c1)[C@H]1CC[C@@]2(O)[C@H]3Cc4ccc(O)c5c4[C@@]2(CCN3CC2CC2)[C@H]1O5 [Compound 97]
2. CN(C(=O)/C=C/c1cccc(F)c1)[C@H]1CC[C@@]2(O)[C@H]3Cc4ccc(O)c5c4[C@@]2(CCN3CC2CC2)[C@H]1O5 [Compound 96]
3. CN(C(=O)/C=C/c1ccoc1)[C@H]1CC[C@@]2(O)[C@H]3Cc4ccc(O)c5c4[C@@]2(CCN3CC2CC2)[C@H]1O5 [Compound 89]

[2.92, 1.61, 15.6]

* * *

# TARGET_OF_ASSAY: κ receptor (Mus musculus, UniProt P33534)
# Construct: The isolated vas deference was filled with Krebes-Henseleit solution; from tissue; host or cells: isolated vas deferens of male ddy mouse
# METHOD: Ke with norBNI in isolated mouse vas deference preparation
# Format: cell-based, mouse (male ddy)
# MEASUREMENT_CONDITIONS: norBNI (κ)
// returns Not met unless Ke norBNI is strictly below 1 nM, in which case Met

>>> print(df.to_string())
                               input_smiles  qualitative_label
0  CCCCOC(=O)N(C)[C@H]1CC[C@@]2(O)[C@H]3Cc4ccc(O)c5c4[C@@]2(CCN3CC2CC2)[C@H]1O5                Met
1  CN(C(=O)C#Cc1ccccc1)[C@@H]1CC[C@@]2(O)[C@H]3Cc4ccc(O)c5c4[C@@]2(CCN3CC2CC2)[C@H]1O5                Met
2  COc1cccc(/C=C/C(=O)N(C)[C@@H]2CC[C@@]3(O)[C@H]4Cc5ccc(O)c6c5[C@@]3(CCN4CC3CC3)[C@H]2O6)c1            Not met

Given "CN(C(=O)Cc1ccc(Cl)c(Cl)c1)[C@H]1CC[C@@]2(O)[C@H]3Cc4ccc(O)c5c4[C@@]2(CCN3CC2CC2)[C@H]1O5" , is recorded Ke norBNI strictly lower than 1 nM? Met

Confirm or reject: Ke norBNI of "CCCCCCC(=O)N(C)[C@H]1CC[C@@]2(O)[C@H]3Cc4ccc(O)c5c4[C@@]2(CCN3CC2CC2)[C@H]1O5" lies strictly below 1 nM Met

Item "CN(C(=O)/C=C/c1cccc(C(F)(F)F)c1)[C@@H]1CC[C@@]2(O)[C@H]3Cc4ccc(O)c5c4[C@@]2(CCN3CC2CC2)[C@H]1O5" : Ke norBNI beneath 1 nM, strictly? Not met

* * *

Field: ED50, acetic acid writhing. Provide a value for each of the molecules that follow.
# Test system: ddY mice
# METHOD: animal or person
# Format: in vivo, mouse (ddY)
# MEASUREMENT_CONDITIONS: mouse, s.c. 15 min before i.p. 0.6% acetic acid
# Method: Analgesic Activity Test Using the Acetic Acid-induced Writhing Method 5 week old ddY mice were used in this test. After intraperitoneal administration of 0.1 ml of 0.6% aqueous acetic acid per 10 g of body weight, the number of writhing reactions that occurred in 10 minutes starting 10 minutes after administration was evaluated for the indicator. The test drug was administered subcutaneously into the backs of the animals 15 minutes before administration of acetic acid.
Give bare numbers, in µg/kg.

Solved entries (count: 2):
>>> df
                               input_smiles            measurement_type  endpoint_value
0  CC(=O)Oc1ccc2c3c1O[C@H]1[C@H](N(C)C(=O)/C=C/c4ccccc4)CC[C@@]4(O)[C@@H](C2)N(CC2CC2)CC[C@]314  ED50, acetic acid writhing             3.4
1  CN(C(=O)CSc1ccccc1)[C@H]1CC[C@@]2(O)[C@H]3Cc4ccc(O)c5c4[C@@]2(CCN3CC2CC2)[C@H]1O5  ED50, acetic acid writhing             3.8

// each molecule listed below needs its ED50, acetic acid writhing
1. CN(C(=O)OCc1ccccc1)[C@H]1CC[C@@]2(O)[C@H]3Cc4ccc(O)c5c4[C@@]2(CCN3CC2CC2)[C@H]1O5
2. CCCCOC(=O)N(C)[C@H]1CC[C@@]2(O)[C@H]3Cc4ccc(O)c5c4[C@@]2(CCN3CC2CC2)[C@H]1O5

1. 1.36
2. 0.52

* * *

# TARGET_OF_ASSAY: κ receptor (Mus musculus)
# Construct: The isolated vas deference was filled with Krebes-Henseleit solution; from tissue; host or cells: isolated vas deferens of male ddy mouse
# METHOD: Ke with norBNI in isolated mouse vas deference preparation
# Format: cell-based, mouse (male ddy)
# MEASUREMENT_CONDITIONS: norBNI (κ)
# Experimental: A male ddy mouse was used in this test. […] Tissue contractions were recorded on a polygraph using an isometric transducer. Then after adequately washing with nutrient solution and the contraction reaction stabilized, naloxone, a μ […], NTI, a δ […], or norBNI, a κ […], were added and the test compound was again cumulatively added after roughly 20 minutes. The Ke value was calculated using the following calculation formula from the difference in the efficacies of both agonists. […]
Can you tell me Ke norBNI for the items I'm about to list?
Answers are plain numbers, in nM.

// worked examples, Ke norBNI included
                               input_smiles  endpoint_value
0  CCCCCC(=O)N(C)[C@H]1CC[C@@]2(O)[C@H]3Cc4ccc(O)c5c4[C@@]2(CCN3CC2CC2)[C@H]1O5            1.01
1  CC(=O)Oc1ccc2c3c1O[C@H]1[C@H](N(C)C(=O)/C=C/c4ccccc4)CC[C@@]4(O)[C@@H](C2)N(CC2CC2)CC[C@]314            1.06

Identify measured Ke norBNI corresponding to "CCC/C=C/C(=O)N(C)[C@@H]1CC[C@@]2(O)[C@H]3Cc4ccc(O)c5c4[C@@]2(CCN3CC2CC2)[C@H]1O5" 0.0717
